- experiment.notes: M. tuberculosis H37Rv growth inhibitors, H37Rv strain (AID 1626);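 note: bacteria incubated seven days before Alamar blue readout; 0% = bacteria only wells and 100% = bacteria with antibiotic wells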
- measurement.setup: hits give high values, concentration not given here
Out of some 220,000 compounds screened, about 2,000 (0.91%) were called active. Another 2% or so got no clear call; they are omitted. Only a sample is shown. Potency and affinity values are given separately.
measure.name: inhibition (%)
Give bare numbers, in %.

| molecule | inhibition, % |
| --- | --- |
| CCN(CC)CCC(c1ccc(N(C)C)cc1)c1c(OC)cc(OC)c2c(-c3ccccc3)cc(=O)oc12 (configuration not stated) | 14.1 |
| CC(C)(C)c1ccc(OC(=O)c2ccc3nsnc3c2)cc1 | 29.5 |
| CCN(CC)C(=O)CSc1nnc(-c2ccc(F)cc2)n1N | 3.27 |
| Cc1ccccc1Nc1c(-c2cccnc2)nc2ccccn12 | 3.53 |

Can you give me inhibition for all of these, one by one?
1. O=C(OCc1nc2ccccc2s1)c1cnccn1
2. Cc1ccc(-c2nc3ncccn3c2Nc2ccccc2C)o1
3. O=C(O)c1ccc(/C=C/c2ccc3cccc(O)c3n2)cc1
4. CCN(CC)C(=O)CC(c1ccc2c(c1)OCO2)c1c(OC)cc(OC)c2c(-c3ccccc3)cc(=O)oc12 (configuration not stated)
5. Brc1ccc(-c2cn3c(n2)CCc2ccc4cccnc4c2-3)cc1
6. Cc1ccn2c(Nc3ccccc3C)c(-c3cccnc3)nc2c1
7. COc1cc(OC)c2ccc(=O)oc2c1C(CCN1CCCC(C)C1)c1ccc2c(c1)OCO2 (configuration not stated)
8. COc1cc(OC)c2c(-c3ccccc3)cc(=O)oc2c1C(CC(=O)N1CCOCC1)c1ccc2c(c1)OCO2 (configuration not stated)

OUTPUT:
1: -4.85; 2: 10.9; 3: 74.2; 4: -2.83; 5: -2.02; 6: 3.46; 7: -5.64; 8: 0.96

Can you give me inhibition for all of these, one by one?
1. COc1cc(OC)c2c(-c3ccccc3)cc(=O)oc2c1C(CCN1CCCC1)c1ccc2c(c1)OCO2 (configuration not stated)
2. COc1ccccc1N1C(=O)C2CC=CC(C)C2C1=O (configuration not stated)

OUTPUT:
[77, -9.33]

---

- experiment.notes: M. tuberculosis H37Rv growth inhibitors, H37Rv strain (AID 1626)
- measurement.setup: hits give high values, concentration not given here
About 2,000 (0.91%) of roughly 220,000 compounds were called active. Inconclusive results (about 2%) are left out. A selection follows. Results with a measured potency or affinity are listed apart.
I'd be grateful if you could share measured inhibition for these entries.
Give bare numbers, in %.

Reference set (3 entries):
| compound | inhibition [%] |
| --- | --- |
| COc1ccc(C2CC(=O)C3=C(C2)Nc2ncnn2C3c2ccccc2)cc1 (stereo not drawn) | -8.64 |
| COc1ccc(/C=C2\Sc3ccc(C(=O)N4CCc5ccccc5C4)cc3N(C)C2=O)cc1 | 23.7 |
| COc1ccc(-c2nc3ccccc3c(=O)o2)cc1 | 11.6 |

Can you give me inhibition for all of these, one by one?
1. Nc1nc(SCC(=O)Nc2ccccc2)[nH]c(=O)c1NC(=O)c1cccs1
2. COc1ccc(S(=O)(=O)c2cnc3ccc(OC)cc3c2N2CCC3(CC2)OCCO3)cc1
3. CCOc1ccc2ncc(S(=O)(=O)c3ccccc3)c(N3CCC4(CC3)OCCO4)c2c1
4. O=C(CCl)Nc1cn(-c2ccccc2)nc1-c1ccc(F)cc1
5. O=C1Nc2cc(C(=O)N3CCc4ccccc4C3)ccc2S/C1=C\c1ccccc1

OUTPUT:
[-5.6, 9.48, -1.36, 61.8, 27.6]

---

- experiment.notes: M. tuberculosis H37Rv growth inhibitors, H37Rv strain (AID 1626)
- measurement.setup: hits give high values, concentration not given here
About 2,000 (0.91%) of roughly 220,000 compounds were called active. Another 2% or so got no clear call; they are omitted. Only a sample is shown. Entries with a potency or affinity are not part of this list.
measure.name: inhibition (%)
Give bare numbers, in %.

Can you give me inhibition for all of these, one by one?
1. CCC(Sc1ccccn1)C(=O)Nc1nnc(C)s1 (stereo not given)
2. C/C=C/c1ccc(OCCCCNCc2ccco2)c(OC)c1
3. O=C(NC1CCCCC1)N1CCCc2ccccc21
4. Nc1ccc(Oc2cccc(Oc3ccc(N)cc3)c2)cc1

OUTPUT:
1. 22
2. -4.41
3. -7.82
4. 0.76

Can you give me inhibition for all of these, one by one?
1. Cc1ccc(-n2nnnc2Sc2nc([N+](=O)[O-])nn2C)cc1
2. Nc1nc(N2CCN(C(=O)c3ccco3)CC2)nc2ccc(Br)cc12
3. Cc1cc(C)cc(Oc2ccc(N)cc2)c1
4. Brc1ccc2ncc(Br)cc2c1
5. O=C(Nc1nnc(CC2=CCCCC2)s1)Nc1ccccc1F
6. O=S(=O)(Nc1nccs1)c1ccc(F)cc1

OUTPUT:
1. 0.83
2. 10.2
3. -4.94
4. 9.05
5. -2.47
6. -3.51

Can you give me inhibition for all of these, one by one?
1. O=C(c1ccc([N+](=O)[O-])s1)N1CCN(c2ccccc2)CC1
2. COc1ccccc1/C=C/C(=O)NCc1ccccn1
3. O=C(CNC(=O)c1ccc(-c2ccccc2)cc1)OCc1ccc(Br)cc1
4. O=C(CCCNC(=O)/C(=C\c1ccc(F)cc1)NC(=O)c1ccccc1)OCc1ccccc1
5. OCCn1c(-c2ccccc2)csc1=Nc1ccccc1
6. O=C(O)CCC(=O)Nc1ccc(Br)cc1C(=O)c1ccc(Cl)cc1

OUTPUT:
[2.71, -4.28, 6.21, 1.82, 3.23, -5.88]

---

- experiment.notes: M. tuberculosis H37Rv growth inhibitors, H37Rv strain (AID 1626);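 note: bacteria incubated seven days before Alamar blue readout; 0% = bacteria only wells and 100% = bacteria with antibiotic wells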
- measurement.setup: hits give high values, concentration not given here
Out of some 220,000 compounds screened, about 2,000 (0.91%) were called active. Roughly 2% stayed inconclusive and do not appear here. Only a sample is shown. Entries with a potency or affinity are not part of this list.
measure.name: inhibition (%)
Answers are plain numbers, in %.

| compound | inhibition / % |
| --- | --- |
| CNC(=O)c1csc(-c2ccc(C)cc2)n1 | -5.14 |
| COc1ccc(CNC(=O)CS(=O)Cc2nc(-c3ccccc3C)oc2C)cc1 (stereo unspecified) | 7.5 |
| O=c1cc(C(F)(F)F)oc2c1ccc1ccccc12 | -2.31 |
| O=c1cc(C(F)F)oc2c1ccc1ccccc12 | 1.35 |

Can you give me inhibition for all of these, one by one?
1. O=S(=O)(Nc1ccc(C(F)(F)F)cc1)c1cnc[nH]1
2. O=c1c(C(c2ccccc2)c2c(O)nc3n(c2=O)CCCS3)c(O)nc2n1CCCS2

OUTPUT:
[-0.2, 7.37]

---

- experiment.notes: M. tuberculosis H37Rv growth inhibitors, H37Rv strain (AID 1626);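 note: bacteria incubated seven days before Alamar blue readout; 0% = bacteria only wells and 100% = bacteria with antibiotic wells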
- measurement.setup: hits give high values, concentration not given here
In all, about 220,000 compounds went through this assay and about 2,000 (0.91%) were called active. Another 2% or so got no clear call; they are omitted. These entries were drawn from the full list. Measured potencies and affinities stand elsewhere.
measure.name: inhibition

Reference set (3 entries):
| compound | endpoint.value |
| --- | --- |
| O=C(c1cccs1)c1coc2ccc(O)cc12 | 51% (inactive) |
| CCOc1ccc(OCC)c(NC(=O)Nc2ccc3c(c2)N(C)C(=O)CS3)c1 | 1.8% (inactive) |
| NC(=O)CSc1ncnc2c1cnn2Cc1ccccc1 | -0.76% (inactive) |

Can you give me inhibition for all of these, one by one?
1. CC(C)(C)C(=O)CSc1ncnc2c1cnn2-c1ccccc1
2. CCOC(=O)CC(=O)CSc1ncnc2c1cnn2-c1ccccc1
3. CC(=O)CSc1ncnc2c1cnn2-c1ccccc1

OUTPUT:
1. 9.82% (inactive)
2. -1.22% (inactive)
3. -1.25% (inactive)

Can you give me inhibition for all of these, one by one?
1. CCOC(=O)Cn1cnc2c(cnn2-c2ccc(Cl)cc2)c1=O
2. CCN(CC)C(=O)CSc1ncnc2c1cnn2Cc1ccccc1

OUTPUT:
1: -3.87% (inactive); 2: -79.5% (inactive)

Can you give me inhibition for all of these, one by one?
1. COc1ccc(OC)c(C(=O)c2coc3ccc(O)cc23)c1
2. CCOC(=O)CNC(=O)CSc1ncnc2c1cnn2-c1ccc(Cl)cc1
3. CNC(=O)CSc1ncnc2c1cnn2-c1ccccc1
4. CCOC(=O)C1=C(c2ccccc2)N=c2s/c(=C\c3cc(OC)c(OC)c(OC)c3)c(=O)n2C1c1cccs1 (configuration not stated)

OUTPUT:
1. -1.33% (inactive)
2. 14.2% (inactive)
3. -3.44% (inactive)
4. -2.92% (inactive)

---

- experiment.notes: M. tuberculosis H37Rv growth inhibitors, H37Rv strain (AID 1626);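 note: bacteria incubated seven days before Alamar blue readout; 0% = bacteria only wells and 100% = bacteria with antibiotic wells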
- measurement.setup: hits give high values, concentration not given here
About 2,000 (0.91%) of roughly 220,000 compounds were called active. Inconclusive results (about 2%) are left out. The list is a sample of the results. Potency and affinity values are given separately.
measure.name: inhibition (%)
Numbers only, in %.

Reference set (5 entries):
| compound | inhibition [%] |
| --- | --- |
| CCN(CC)CCNS(=O)(=O)c1ccc(C(=O)NN)cc1 | 2.36 |
| COC(=O)CNC(=O)c1cn(CC(C)C)c(=O)c2cc(OC)c(OC)cc12 | -2.81 |
| C=CCN1C(=O)C(C(C)CC)NC1=S (stereo unspecified) | -2.92 |
| CCCOc1ccc(C(CC(=O)O)NC(=O)c2ccc3c(c2)OCO3)cc1 (stereo unspecified) | 3.69 |
| Cc1ccc(C2c3c(oc4ccccc4c3=O)C(=O)N2c2nncs2)cc1 (stereo unspecified) | -7.54 |

Then there is this compound:
INPUT: Name the recorded inhibition for COCCOC(=O)C1=C(N)OC2=C(C(=O)CC(C)(C)C2)C1c1ccncc1 (stereo unspecified) .
OUTPUT: -0.69
